Item-by-item account of viability, T/C
- System: 377384-186-R-J1-PDC complex spheroid viability
- test details: Anticancer human tumor 377384-186-R-J1-PDC patient-derived pancreatic carcinoma cell line growth inhibition [RAS]
- protocol conditions: second compound 0.003 µM; first compound 0.1 µM; stronger effect = lower value
- Text: RAS pathway inhibitors in Combinations in Complex Spheroids A high-throughput screen of multi-cell type tumor spheroids was designed to identify active combinations of RAS pathway inhibitors and targeted small molecules. Complex spheroids include a stromal component modeled by human endothelial cells (HUVEC) and fibroblasts modeled by human mesenchymal stem cells (MSCs). […] Compounds. […] If the clinical Cmax for an agent had not been determined, the highest concentration tested was 10 microM. […]

compound	viability, T/C / %
CC(Nc1ccc2c(c1)OCCn1cc(N3C(=O)OCC3C(F)F)nc1-2)C(N)=O (centres undefined) + CCn1c(-c2cccnc2C(C)OC)c2c3cc(ccc31)N1CCOC(CC(NC(=O)C(C(C)C)N(C)C(=O)C3(F)CCN(C(=O)C#CC(C)(C)N(C)C)CC3)C(=O)N3CCCC(N3)C(=O)OCC(C)(C)C2)C1	74.7
C[C@@H](NC(=O)c1ncnc(N)c1Cl)c1ncc(C(=O)Nc2cc(C(F)(F)F)c(Cl)cn2)s1 + CCn1c(-c2cc(N3CCN(C)CC3)cnc2C(C)OC)c2c3cc(ccc31)-c1csc(n1)CC(NC(=O)C1CC1C)C(=O)N1CCCC(N1)C(=O)OCC(C)(C)C2	36.5
CC(C)NCC(C(=O)N1CCN(c2ncnc3c2C(C)CC3O)CC1)c1ccc(Cl)cc1 (centres undefined) + CCn1c(-c2cccnc2C(C)OC)c2c3cc(ccc31)N1CCOC(CC(NC(=O)C(C(C)C)N(C)C(=O)C3(F)CCN(C(=O)C#CC(C)(C)N(C)C)CC3)C(=O)N3CCCC(N3)C(=O)OCC(C)(C)C2)C1	106
NC1c2ccccc2OC12CCN(c1cnc3c(N4CCCc5ncccc54)n[nH]c3n1)CC2 (centres undefined) + CCn1c(-c2cccnc2C(C)OC)c2c3cc(ccc31)N1CCOC(CC(NC(=O)C(C(C)C)N(C)C(=O)C3(F)CCN(C(=O)C#CC(C)(C)N(C)C)CC3)C(=O)N3CCCC(N3)C(=O)OCC(C)(C)C2)C1	86.1

* * *

- Test system: 377384-186-R-J1-PDC complex spheroid viability
- test details: Anticancer human tumor 377384-186-R-J1-PDC cell line growth inhibition [RAS]; active means viability on the fitted dose curve at most 10% of control; inactive means the rest;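 note: spheroids exposed to compounds for seven days before readout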
- protocol conditions: second compound 0.003 µM; first compound 0.1 µM
Outcome codes: active, inactive

molecule	category
CCC(CC)c1cc(NC2CCC(N)C2)n2nccc2n1 (centres undefined) + CCn1c(-c2cccnc2C(C)OC)c2c3cc(ccc31)N1CCOC(CC(NC(=O)C(C(C)C)N(C)C(=O)C3(F)CCN(C(=O)C#CC(C)(C)N(C)C)CC3)C(=O)N3CCCC(N3)C(=O)OCC(C)(C)C2)C1	inactive
C=CC(=O)N1CCN(c2nc(OCC3CCCN3C)nc3c(F)c(-c4nc(N)cc(C)c4C(F)(F)F)c(Cl)cc23)C(C)C1 (centres undefined) + CCn1c(-c2cccnc2C(C)OC)c2c3cc(ccc31)N1CCOC(CC(NC(=O)C(C(C)C)N(C)C(=O)C3(F)CCN(C(=O)C#CC(C)(C)N(C)C)CC3)C(=O)N3CCCC(N3)C(=O)OCC(C)(C)C2)C1	inactive
O=C(c1ccc(F)c(F)c1Nc1ccc(I)cc1F)N1CC(O)([C@@H]2CCCCN2)C1 + CCn1c(-c2cccnc2C(C)OC)c2c3cc(ccc31)N1CCOC(CC(NC(=O)C(C(C)C)N(C)C(=O)C3(F)CCN(C(=O)C#CC(C)(C)N(C)C)CC3)C(=O)N3CCCC(N3)C(=O)OCC(C)(C)C2)C1	inactive
CC(=O)OC12COC1CC(O)C1(C)C(=O)C(O)C3=C(C)C(OC(=O)C(O)C(NC(=O)OC(C)(C)C)c4ccccc4)CC(O)(C(OC(=O)c4ccccc4)C21)C3(C)C (centres undefined) + CCn1c(-c2cc(N3CCN(C)CC3)cnc2C(C)OC)c2c3cc(ccc31)-c1csc(n1)CC(NC(=O)C1CC1C)C(=O)N1CCCC(N1)C(=O)OCC(C)(C)C2	active
